# systemName: T1, SNTA1, Q13424
# T1 sequence (Q13424 82-180, limits assumed, looked up): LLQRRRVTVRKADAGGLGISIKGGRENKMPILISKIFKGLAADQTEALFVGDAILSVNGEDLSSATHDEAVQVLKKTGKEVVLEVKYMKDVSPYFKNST
# methodSummary: holdup assay
# Design: key: below the threshold = too weak to quantify, mostly under pKd 3.1 to 4
# appliedConditions: plain residues with an end cap or a label only (N-terminal biotin on a linker: ado-ado)
measuredMetric: pKd
Lab note: write the figure by itself, no unit.

In the examples that follow, each entry is paired with its recorded pKd.
In [3]: df
Out[3]:
                         binder  measuredmetric  numericreadout
0   MLSKQSESAI [FLVCR1, Q9Y5Y0]             pKd            3.73
1     LGRSTPQSEV [DGKH, Q86XP1]             pKd             3.8
2    GQEEQVTTRL [TRPC5, Q9UL62]             pKd            3.91
3    FNSYSLTGYV [CLDN2, P57739]             pKd            3.64
4  DDENIRTSDV [PLEKHA2, Q9HB19]             pKd            5.11

Now for a further binder.
pKd reading for LPHGHSTTRV [NLGN4X, Q8N0W4] : 4.05
